Biological target: SXR (Homo sapiens)
Assay: Microplate thermal shift assay (Thermofluor) of SXR with ligands, co-activator peptide SRC1-NR2 and co-repressor peptide NCoR-1
Details: read-out: ΔΔTm NcoR1-NR2

>  <compound>
C[C@]12CC[C@@H]3c4ccc(O)cc4CC[C@H]3[C@@H]1CC[C@@H]2O [Estradiol]

>  <test.system>
SXR (Homo sapiens)

>  <ΔTm at 100 µM, °C>
2.3

$$$$
>  <compound>
CCOC(=O)C(C)(C)Oc1ccc(Cl)cc1 [Clofibrate]

>  <test.system>
SXR (Homo sapiens)

>  <ΔTm at 100 µM, °C>
3.4

$$$$
>  <compound>
C[C@H](CCC(=O)O)[C@H]1CC[C@H]2[C@@H]3CC[C@@H]4C[C@H](O)CC[C@]4(C)[C@H]3CC[C@]12C [Lithocholic acid]

>  <test.system>
SXR (Homo sapiens)

>  <ΔTm at 100 µM, °C>
1.4

$$$$
>  <compound>
C[C@]12CC[C@@H](O)C[C@@H]1CC[C@@H]1[C@@H]2CC[C@]2(C)C(=O)CC[C@@H]12 [Androsterone]

>  <test.system>
SXR (Homo sapiens)

>  <ΔTm at 100 µM, °C>
3.8

$$$$

* * *

Target: SXR (Homo sapiens, UniProt O75469)
Sequence (O75469 whole entry): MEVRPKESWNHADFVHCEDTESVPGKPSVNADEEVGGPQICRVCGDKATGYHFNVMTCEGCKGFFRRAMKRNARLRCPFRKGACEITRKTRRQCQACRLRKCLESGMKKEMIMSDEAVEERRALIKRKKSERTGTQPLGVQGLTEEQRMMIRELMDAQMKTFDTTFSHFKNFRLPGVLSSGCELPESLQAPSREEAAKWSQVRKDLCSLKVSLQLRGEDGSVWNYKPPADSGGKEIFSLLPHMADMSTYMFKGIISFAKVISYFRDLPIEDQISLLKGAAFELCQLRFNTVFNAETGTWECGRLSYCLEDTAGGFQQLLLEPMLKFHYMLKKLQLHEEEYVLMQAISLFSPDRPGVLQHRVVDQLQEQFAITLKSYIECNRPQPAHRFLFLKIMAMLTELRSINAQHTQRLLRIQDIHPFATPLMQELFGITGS
Test: Microplate thermal shift assay (Thermofluor) of SXR with ligands, co-activator peptide SRC1-NR2 and co-repressor peptide NCoR-1
We label by threshold. Values of Kd strictly beneath 9 µM are criterion met. Values of 9 µM and up are criterion not met.

>  <compound>
C[C@]12C[C@H](O)[C@H]3[C@@H](CCC4=CC(=O)CC[C@@]43C)[C@@H]1CC[C@@H]2C(=O)CO

>  <category>
criterion met

$$$$
>  <compound>
C[C@]12CCC(=O)C=C1CC[C@@H]1[C@@H]2[C@@H](O)C[C@@]2(C)[C@H]1CC[C@]2(O)C(=O)CO [Hydrocortisone]

>  <category>
criterion not met

$$$$
>  <compound>
CCOC(=O)C(C)(C)Oc1ccc(Cl)cc1 [Clofibrate]

>  <category>
criterion not met

$$$$
>  <compound>
CC(=O)O[C@H]1C(=O)[C@@]2(C)[C@H]([C@H](OC(=O)c3ccccc3)[C@]3(O)C[C@H](OC(=O)[C@H](O)[C@@H](NC(=O)c4ccccc4)c4ccccc4)C(C)=C1C3(C)C)[C@]1(OC(C)=O)CO[C@@H]1C[C@@H]2O

>  <category>
criterion not met

$$$$
>  <compound>
CC[C@H](C)C(=O)O[C@H]1C[C@@H](C)C=C2C=C[C@H](C)[C@H](CC[C@@H]3C[C@@H](O)CC(=O)O3)[C@H]21

>  <category>
criterion met

$$$$
>  <compound>
C[C@]12CC[C@@H]3c4ccc(O)cc4CC[C@H]3[C@@H]1CC[C@@H]2O

>  <category>
criterion met

$$$$

* * *

# ΔTm ligand values compiled below
Target: SXR (Homo sapiens)
Test: Microplate thermal shift assay (Thermofluor) of SXR with ligands, co-activator peptide SRC1-NR2 and co-repressor peptide NCoR-1
Conditions: SXR 6 μM, ligand 50 μM; average of four experiments

>  <compound>
C[C@]12C[C@H](O)[C@H]3[C@@H](CCC4=CC(=O)CC[C@@]43C)[C@@H]1CC[C@@H]2C(=O)CO

>  <ΔTm ligand / °C>
5

$$$$
>  <compound>
C[C@H](CCC(=O)O)[C@H]1CC[C@H]2[C@@H]3CC[C@@H]4C[C@H](O)CC[C@]4(C)[C@H]3CC[C@]12C

>  <ΔTm ligand / °C>
2.4

$$$$
>  <compound>
CC[C@H](C)C(=O)O[C@H]1C[C@@H](C)C=C2C=C[C@H](C)[C@H](CC[C@@H]3C[C@@H](O)CC(=O)O3)[C@H]21

>  <ΔTm ligand / °C>
6.3

$$$$
>  <compound>
C[C@]12CCC(=O)C=C1CC[C@@H]1[C@@H]2[C@@H](O)C[C@@]2(C)[C@H]1CC[C@]2(O)C(=O)CO [Hydrocortisone]

>  <ΔTm ligand / °C>
1.6

$$$$
>  <compound>
CC(=O)[C@H]1CC[C@H]2[C@@H]3CCC4=CC(=O)CC[C@]4(C)[C@H]3[C@H](O)C[C@]12C [11-α-hydroxy-progesterone]

>  <ΔTm ligand / °C>
6.3

$$$$
>  <compound>
C[C@]12CC[C@@H](O)C[C@@H]1CC[C@@H]1[C@@H]2CC[C@]2(C)C(=O)CC[C@@H]12

>  <ΔTm ligand / °C>
3.3

$$$$
>  <compound>
CCOC(=O)C(C)(C)Oc1ccc(Cl)cc1 [Clofibrate]

>  <ΔTm ligand / °C>
1.3

$$$$
>  <compound>
CC(=O)O[C@H]1C(=O)[C@@]2(C)[C@H]([C@H](OC(=O)c3ccccc3)[C@]3(O)C[C@H](OC(=O)[C@H](O)[C@@H](NC(=O)c4ccccc4)c4ccccc4)C(C)=C1C3(C)C)[C@]1(OC(C)=O)CO[C@@H]1C[C@@H]2O

>  <ΔTm ligand / °C>
1.3

$$$$
